Tested on: MDA-MB-231 breast
Test: NCI tumour cell line growth inhibition, 48 h
metric_name: TGI (µM)
Form entry: value (µM) — number only.

INPUT: Hello, I am looking for reported TGI with MDA-MB-231 breast for CC1=CC[C@H](C(C)C)C(C(O)[C@@H](C)O[Si](c2ccccc2)(c2ccccc2)C(C)(C)C)C1=O (stereo not given in full) . Could you help?
OUTPUT: 32.4

INPUT: Another molecule: COC(=O)C1=CSC2(S1)C(C(=O)OC)=CSc1c2ssc1=O (stereo not given)
OUTPUT: 4.13

INPUT: Another molecule: CC1(C)CCc2c(c(N=Nc3ccc(S(N)(=O)=O)cc3)c3ccccc3c2O)O1
OUTPUT: 8.77

INPUT: Another molecule: CCCC[C@H]1[C@@H](OCOc2ccccc2)COC(=O)N1[C@H](C)c1ccccc1
OUTPUT: 37.3
